biological target: IgE antibodies of the allergic patient serum pool Bor 18/100 (20 donors); assay: EAST inhibition, serum pool Bor 18/100
Entries and their allergenic potency (Prel) at 25% inhibition (relative to native Phl p 5b)
READOUT KIND: allergenic potency (Prel) at 25% inhibition (relative to native Phl p 5b)

rPhl p 5b point mutant PM1 (N32D, D49L, K50A) (protein) ADAGYAPATPAAAGAAAGKATTEEQKLIEDIDVGFKAAVAAAASVPAALAFKTFEAAFTSSSKAAAAKAPGLVPKLDAAYSVAYKAAVGATPEAKFDSFVASLTEALRVIAGALEVHAVKPVTEEPGMAKIPAGELQIIDKIDAAFKVAATAAATAPADDKFTVFEAAFNKAIKESTGGAYDTYKCIPSLEAAVKQAYAATVAAAPQVKYAVFEAALTKAITAMSEVQKVSQPATGAATVAAGAATTAAGAASGAATVAAGGYKV; 0.739
rPhl p 5b point mutant PM3 (A13C) (protein) ADAGYAPATPAACGAAAGKATTEEQKLIEDINVGFKAAVAAAASVPAADKFKTFEAAFTSSSKAAAAKAPGLVPKLDAAYSVAYKAAVGATPEAKFDSFVASLTEALRVIAGALEVHAVKPVTEEPGMAKIPAGELQIIDKIDAAFKVAATAAATAPADDKFTVFEAAFNKAIKESTGGAYDTYKCIPSLEAAVKQAYAATVAAAPQVKYAVFEAALTKAITAMSEVQKVSQPATGAATVAAGAATTAAGAASGAATVAAGGYKV; 1.64
recombinant Phl p 5b (wild type) (protein) ADAGYAPATPAAAGAAAGKATTEEQKLIEDINVGFKAAVAAAASVPAADKFKTFEAAFTSSSKAAAAKAPGLVPKLDAAYSVAYKAAVGATPEAKFDSFVASLTEALRVIAGALEVHAVKPVTEEPGMAKIPAGELQIIDKIDAAFKVAATAAATAPADDKFTVFEAAFNKAIKESTGGAYDTYKCIPSLEAAVKQAYAATVAAAPQVKYAVFEAALTKAITAMSEVQKVSQPATGAATVAAGAATTAAGAASGAATVAAGGYKV; 1.71
natural Phl p 5b, purified by affinity chromatography (protein) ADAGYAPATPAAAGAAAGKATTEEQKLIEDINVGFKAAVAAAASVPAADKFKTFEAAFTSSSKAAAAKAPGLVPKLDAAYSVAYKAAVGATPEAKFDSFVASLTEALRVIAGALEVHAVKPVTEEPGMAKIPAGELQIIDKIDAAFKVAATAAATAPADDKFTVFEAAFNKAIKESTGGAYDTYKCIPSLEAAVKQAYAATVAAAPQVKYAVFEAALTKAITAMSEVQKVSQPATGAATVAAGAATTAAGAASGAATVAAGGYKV; 1
